B1: Lysozyme C, P61626 (parent)
chain: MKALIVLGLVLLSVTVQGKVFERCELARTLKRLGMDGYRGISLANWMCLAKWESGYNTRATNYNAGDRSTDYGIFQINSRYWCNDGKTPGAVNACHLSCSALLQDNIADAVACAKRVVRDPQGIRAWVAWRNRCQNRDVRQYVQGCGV

variants of: B1; conditions: Homo sapiens; pH 2.5; Thermal; DSC; glycine-HCl 0.05 M; reversible: yes; structure 1LZ1; whole UniProt chain shown
Measure name: unfolding enthalpy (calorimetric) (kcal/mol)

> print(dat)
   mutation.code                       measure.name  observed.result
1          V128L  unfolding enthalpy (calorimetric)              105
2           V92L  unfolding enthalpy (calorimetric)              100
3           V20I  unfolding enthalpy (calorimetric)              108
4           V92M  unfolding enthalpy (calorimetric)              107
